molecular target: Platelet-derived growth factor receptor alpha (Homo sapiens) (UniProt P16234); conditions: at 1 µM;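 further: values are mean percent inhibition of PDGFRA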
Sequence (P16234 whole entry): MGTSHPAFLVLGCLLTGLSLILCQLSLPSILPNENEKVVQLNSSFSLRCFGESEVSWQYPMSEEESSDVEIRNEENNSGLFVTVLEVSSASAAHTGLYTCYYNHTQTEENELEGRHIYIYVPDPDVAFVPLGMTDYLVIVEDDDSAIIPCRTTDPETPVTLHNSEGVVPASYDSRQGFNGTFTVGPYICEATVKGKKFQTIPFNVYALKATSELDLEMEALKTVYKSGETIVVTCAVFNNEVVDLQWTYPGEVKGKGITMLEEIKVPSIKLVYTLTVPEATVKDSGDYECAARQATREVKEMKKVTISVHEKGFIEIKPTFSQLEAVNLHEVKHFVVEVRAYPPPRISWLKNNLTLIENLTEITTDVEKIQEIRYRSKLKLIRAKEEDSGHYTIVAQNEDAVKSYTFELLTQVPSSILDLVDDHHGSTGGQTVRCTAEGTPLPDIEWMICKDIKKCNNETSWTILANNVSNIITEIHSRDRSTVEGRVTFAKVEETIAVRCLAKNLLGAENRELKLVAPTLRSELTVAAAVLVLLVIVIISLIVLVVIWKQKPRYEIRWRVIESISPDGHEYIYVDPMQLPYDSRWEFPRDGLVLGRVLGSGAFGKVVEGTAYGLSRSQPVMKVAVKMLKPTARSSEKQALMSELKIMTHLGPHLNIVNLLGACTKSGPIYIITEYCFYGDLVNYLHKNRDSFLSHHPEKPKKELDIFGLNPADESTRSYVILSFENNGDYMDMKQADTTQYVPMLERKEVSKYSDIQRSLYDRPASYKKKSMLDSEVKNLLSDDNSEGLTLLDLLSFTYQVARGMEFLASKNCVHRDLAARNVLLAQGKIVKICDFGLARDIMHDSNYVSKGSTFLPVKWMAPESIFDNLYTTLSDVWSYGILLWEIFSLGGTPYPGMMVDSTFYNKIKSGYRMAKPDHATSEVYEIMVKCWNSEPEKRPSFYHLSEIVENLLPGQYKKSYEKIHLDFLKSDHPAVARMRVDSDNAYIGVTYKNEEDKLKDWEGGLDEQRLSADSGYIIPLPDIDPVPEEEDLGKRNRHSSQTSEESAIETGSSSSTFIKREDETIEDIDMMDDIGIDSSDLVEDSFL
Catalogue of inhibition readings, one per entry.
# value in %; strip the unit string

COMPOUND	inhibition, %
Cc1nn(C)c2cc(N(C)c3ccnc(Nc4cccc(S(N)(=O)=O)c4)n3)ccc12	61.2
Nc1nc(-c2ccc3c(c2)C(=Cc2cc(Br)c(O)c(Br)c2)C(=O)N3)cs1	5.96

Ask | Data request, read-out inhibition, for `CCN1CCC(CC(=O)Nc2n[nH]c3nc(-c4cccs4)c(Br)cc23)CC1`
Reply | 5.44

Ask | Data request, read-out inhibition, for `CCCN1CCC(Oc2cc(Nc3nc(Nc4cccc(F)c4C(N)=O)c4cc[nH]c4n3)c(OC)cc2Cl)CC1`
Reply | 11.6

Ask | Data request, read-out inhibition, for CC1=C(C(=O)Nc2ccc3[nH]ncc3c2)C(c2ccc3ccccc3c2)CC(=O)N1 (stereo unspecified)
Reply | 14.6

Ask | Data request, read-out inhibition, for `CC(=O)Nc1cccc(C#Cc2cncnc2Nc2ccc(OCc3cccc(F)c3)c(Cl)c2)n1`
Reply | 8.73

Ask | Data request, read-out inhibition, for `O=C1NC(=O)C(c2ccc(Cl)cc2)=C1Nc1ccc(Cl)c(C(=O)O)c1`
Reply | 7.23

Ask | Data request, read-out inhibition, for `COc1ccc(COc2ccc(Cc3cnc(N)nc3N)cc2OC)cc1`
Reply | 15.7

---

Catalogue of inhibition readings, one per entry.
target: Serine/threonine-protein kinase SIK2 (Homo sapiens); details: at 1 µM;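 further: mean inhibition of SNF1LK2 (QIK) kinase activity, from the GSK PKIS screening panel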
# value in %; strip the unit string

MOLECULE	TARGET_OR_SYSTEM	TEST_VALUE
CC(C)=Cc1cccc2c1/C(=N/Nc1ccc(S(N)(=O)=O)cc1)C(=O)N2	Serine/threonine-protein kinase SIK2 (Homo sapiens)	15.5

// switching to the query molecule
Ask | Data request, read-out inhibition, for CC1=C(C(=O)Nc2ccc3[nH]ncc3c2)C(c2ccc(Cl)c(Cl)c2)CC(=O)N1 (stereo not given)
Reply | 2.87

---

Target: Serine/threonine-protein kinase TBK1 (Homo sapiens);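 further: values are mean inhibition of TBK1, screened as part of the GSK published kinase inhibitor set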
Sequence (whole entry): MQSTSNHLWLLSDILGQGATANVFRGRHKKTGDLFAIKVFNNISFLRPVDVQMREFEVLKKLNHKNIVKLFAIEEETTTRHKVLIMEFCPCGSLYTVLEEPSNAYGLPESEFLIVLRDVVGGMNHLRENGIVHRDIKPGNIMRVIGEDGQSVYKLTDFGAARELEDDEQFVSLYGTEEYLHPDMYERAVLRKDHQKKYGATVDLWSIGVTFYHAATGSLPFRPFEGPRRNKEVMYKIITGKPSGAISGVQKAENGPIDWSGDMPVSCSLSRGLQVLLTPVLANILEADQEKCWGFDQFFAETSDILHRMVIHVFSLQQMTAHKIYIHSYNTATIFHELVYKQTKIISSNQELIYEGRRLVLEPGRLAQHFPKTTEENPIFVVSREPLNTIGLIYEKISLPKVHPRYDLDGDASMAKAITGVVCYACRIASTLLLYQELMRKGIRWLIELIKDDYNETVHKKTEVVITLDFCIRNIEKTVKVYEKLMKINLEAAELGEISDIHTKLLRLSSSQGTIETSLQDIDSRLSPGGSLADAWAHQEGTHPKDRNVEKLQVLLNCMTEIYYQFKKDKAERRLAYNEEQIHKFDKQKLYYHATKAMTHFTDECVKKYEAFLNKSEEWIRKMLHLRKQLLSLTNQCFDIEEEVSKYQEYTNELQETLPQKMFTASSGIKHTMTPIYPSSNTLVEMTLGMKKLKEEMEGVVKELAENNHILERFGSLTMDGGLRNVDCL
Settings: at 1 µM
MEASURED_PARAMETER: inhibition (%)
# value in %; strip the unit string

Before answering, review these 5 worked examples.
COMPOUND	TEST_VALUE
CN1CCC(C(=O)Nc2n[nH]c3nnc(-c4ccccc4)cc23)CC1	3.05
CNC(=O)c1cncc(/C=C/c2c(Cl)cccc2Cl)c1	4.76
COc1cc2ncn(-c3cc(O[C@H](C)c4ccccc4Cl)c(C(N)=O)s3)c2cc1OC	6.39
COC(=O)Nc1nc2cc(Oc3ccc(NC(=O)Nc4cccc(C(=O)O)c4)cc3)ccc2[nH]1	2.42
Cc1ccc(NC(=O)c2ccnc(N3CCCC3)c2)cc1-c1ccc(C(=O)NCC2CC2)cc1	8.32

Ask | Data request, read-out inhibition, for `CCn1c(-c2nonc2N)nc2c(C#CC(C)(C)O)nc(CN3CCCC3)cc21`
Reply | 9.67

Ask | Data request, read-out inhibition, for `CCn1c(-c2nonc2N)nc2c(N3CCCC3)nccc21`
Reply | 2.54

Ask | Data request, read-out inhibition, for `CCn1c(-c2nonc2N)nc2cnc(Oc3cccc(NC(=O)c4ccc(OCCN5CCOCC5)cc4)c3)cc21`
Reply | 7.42

---

Catalogue of inhibition readings, one per entry.
target: Casein kinase I isoform gamma-1 (Homo sapiens); conditions: at 1 µM;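 further: reported value is the mean inhibition of CK1 gamma-1 kinase activity across replicate measurements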
# value in %; strip the unit string

MOL_SMILES	MEASUREMENT_UNITS	inhibition
Cc1nn(C)c2cc(N(C)c3ccnc(Nc4cccc(S(N)(=O)=O)c4)n3)ccc12	%	2.59
CCN1CCC(CC(=O)Nc2n[nH]c3nc(-c4cccs4)c(Br)cc23)CC1	%	-1.74
Cc1ccc(NC(=O)c2ccnc(N3CCCC3)c2)cc1-c1ccc(C(=O)NCC2CC2)cc1	%	3.3
CCn1c(-c2nonc2N)nc2cnc(Oc3cccc(NC(=O)c4ccc(OCCN5CCOCC5)cc4)c3)cc21	%	2.93
COc1ccc(-c2nn3ncccc3c2-c2ccnc(Nc3ccc(Cl)c(C(F)(F)F)c3)n2)cc1	%	2.18

Ask | Data request, read-out inhibition, for `COC(=O)Nc1nc2cc(Oc3cccc(NC(=O)Nc4cc(C(F)(F)F)ccc4F)c3)ccc2[nH]1`
Reply | 0.48

Ask | Data request, read-out inhibition, for `CCCN1CCC=C(c2ccc(Nc3nc(Nc4ccccc4C(N)=O)c4cc[nH]c4n3)c(C)c2)C1`
Reply | 59.8

Ask | Data request, read-out inhibition, for `NS(=O)(=O)c1cccc(-c2ccc3c(NC(=O)C4CC4)n[nH]c3c2)c1`
Reply | 0.05

Ask | Data request, read-out inhibition, for `[O-][S+]1CCN(Cc2ccc(-c3ccc4ncnc(Nc5ccc(OCc6ccccc6)c(F)c5)c4c3)o2)CC1`
Reply | 3.44

Ask | Data request, read-out inhibition, for `Cc1ccc(C(=O)NC2CCCCC2)cc1-c1ccc(C(=O)NCC2CC2)cc1`
Reply | 2.66

Ask | Data request, read-out inhibition, for `CS(=O)(=O)CCNCc1nc(-c2ccc3ncnc(Nc4ccc(F)c(Cl)c4)c3c2)cs1`
Reply | 1.55

Ask | Data request, read-out inhibition, for `COc1cc2c(cc1Nc1nc(N3CCc4ccccc43)c3cc[nH]c3n1)N(C(=O)CN(C)C)CC2`
Reply | 3.55

Ask | Data request, read-out inhibition, for `Cc1nnc(-c2ccc(C)c(-c3ccc(C(=O)Nc4cccc(C#N)c4)cc3)c2)o1`
Reply | 2.59

Ask | Data request, read-out inhibition, for `CCn1c(-c2nonc2N)nc2cncc(C(=O)N3CCNCC3)c21`
Reply | 6.64

Ask | Data request, read-out inhibition, for `COC(=O)Nc1nc2cc(Oc3ccc(NC(=O)Nc4cccc(C(=O)O)c4)cc3)ccc2[nH]1`
Reply | -2.13

Ask | Data request, read-out inhibition, for `COc1cc2ncn(-c3cc(O[C@@H](C)c4ccccc4Cl)c(C(N)=O)s3)c2cc1OC`
Reply | 5.05

Ask | Data request, read-out inhibition, for `COc1ccccc1Nc1ncc(-c2ccccc2)o1`
Reply | 5.25

Ask | Data request, read-out inhibition, for `Nc1ncnc2occ(-c3ccc(NC(=O)Nc4cc(C(F)(F)F)cc(C(F)(F)F)c4)cc3)c12`
Reply | 2.74

Ask | Data request, read-out inhibition, for `O=C1NC(=O)C(c2ccccc2Cl)=C1Nc1cccc(O)c1`
Reply | 3.11

---

target: Mitogen-activated protein kinase 3 (Homo sapiens) (UniProt P27361); details: at 1 µM;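 further: values are mean percent inhibition of MAPK3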
Sequence (P27361 whole entry): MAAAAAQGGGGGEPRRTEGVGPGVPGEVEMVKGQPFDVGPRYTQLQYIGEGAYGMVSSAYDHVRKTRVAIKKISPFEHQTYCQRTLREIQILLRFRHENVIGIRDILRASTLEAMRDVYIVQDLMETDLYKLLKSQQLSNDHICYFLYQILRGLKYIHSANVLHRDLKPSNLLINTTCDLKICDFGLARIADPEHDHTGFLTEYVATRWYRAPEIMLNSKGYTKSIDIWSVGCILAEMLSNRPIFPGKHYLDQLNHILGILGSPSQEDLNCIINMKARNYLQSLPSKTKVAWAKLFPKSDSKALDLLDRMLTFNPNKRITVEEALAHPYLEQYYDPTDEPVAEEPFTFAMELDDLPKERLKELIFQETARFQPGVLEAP
Catalogue of inhibition readings, one per entry.
# value in %; strip the unit string

Ask | Data request, read-out inhibition, for `Nc1nc(-c2ccccn2)c(-c2ccc3ncccc3n2)s1`
Reply | 1.04

Ask | Data request, read-out inhibition, for `Cc1ccc(NC(=O)c2ccnc(N3CCCC3)c2)cc1-c1ccc(C(=O)NCC2CC2)cc1`
Reply | 3.65

Ask | Data request, read-out inhibition, for `Nc1ncnc2occ(-c3ccc(NC(=O)Nc4cc(C(F)(F)F)cc(C(F)(F)F)c4)cc3)c12`
Reply | 2.23

Ask | Data request, read-out inhibition, for `CC(C)=Cc1cccc2c1/C(=N/Nc1ccc(S(N)(=O)=O)cc1)C(=O)N2`
Reply | 2.62

Ask | Data request, read-out inhibition, for CC1=C(C(=O)Nc2ccc3[nH]ncc3c2)C(c2ccc(Cl)c(Cl)c2)CC(=O)N1 (stereo unspecified)
Reply | 14.6

Ask | Data request, read-out inhibition, for `COc1ccccc1Nc1ncc(-c2ccccc2)o1`
Reply | 5.55

Ask | Data request, read-out inhibition, for `Cn1cc(C=C2C(=O)Nc3cccnc32)c2ccccc21`
Reply | 2.73
